- experimentalTarget: THRA (gene 7067) (UniProt P10827)
- Sequence (P10827 whole entry, looked up): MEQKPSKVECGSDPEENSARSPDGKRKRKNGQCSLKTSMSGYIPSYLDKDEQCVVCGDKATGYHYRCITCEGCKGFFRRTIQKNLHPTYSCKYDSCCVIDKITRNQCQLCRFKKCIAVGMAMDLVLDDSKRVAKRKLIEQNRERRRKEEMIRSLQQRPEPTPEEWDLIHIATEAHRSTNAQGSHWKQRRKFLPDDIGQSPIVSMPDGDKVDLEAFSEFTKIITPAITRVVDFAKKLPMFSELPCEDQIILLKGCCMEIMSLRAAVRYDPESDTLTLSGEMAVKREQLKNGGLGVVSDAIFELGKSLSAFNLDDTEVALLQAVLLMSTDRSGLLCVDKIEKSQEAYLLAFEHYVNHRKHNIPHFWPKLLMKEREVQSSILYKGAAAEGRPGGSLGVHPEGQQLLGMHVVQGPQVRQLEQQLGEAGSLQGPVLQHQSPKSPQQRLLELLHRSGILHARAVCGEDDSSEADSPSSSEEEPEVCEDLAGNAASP
- assayProtocol: TOX21_TRA_COA_Agonist_Followup_ratio: Tox21 Thyroid Hormone Receptor alpha Agonism through Coactivator Recruitment Follow-Up Assay, Ratio (AID 2283948)
Active and inactive are the calls of the source. The calls were made as follows: active = hit-call score of the fitted dose curve at least 0.9, where 1 is the maximum; inactive = score below 0.9.
Your answer must be one of the following: active, inactive

Please review the entries below; each comes with its answer.
INSERT INTO measurements (molecule, category) VALUES
  ('Cc1cc(-n2c(=O)[nH]c(=O)n(C)c2=O)ccc1Oc1ccc(S(=O)(=O)C(F)(F)F)cc1', 'inactive'),
  ('CCC(C)c1cc(C(C)(C)C)c(O)c(C(C)(C)C)c1 (centres undefined)', 'inactive'),
  ('CSCC[C@H](NC(=O)[C@H](Cc1ccc(OS(=O)(=O)O)cc1)NC(=O)[C@@H](N)CC(=O)O)C(=O)NCC(=O)N[C@@H](Cc1c[nH]c2ccccc12)C(=O)N[C@@H](CCSC)C(=O)N[C@@H](CC(=O)O)C(=O)N[C@@H](Cc1ccccc1)C(N)=O', 'inactive');

Below: the item to evaluate.
Q: # fetch the recorded call for CC(C)(C)CC(C)(C)c1ccc(O)c(Cc2ccc(Cl)cc2Cl)c1 here
Ans: active
